# System: Vero
# protocolText: cells
# Assay type: functional, cell-based
# protocolConditions: Chlorocebus sabaeus
Calls of active or inactive are those of the source.
measuredEndpoint: IC50

Given Cc1ccc(C(=O)NNC(=S)NC(=O)c2ccccc2)cc1 , state its recorded IC50.
12 µM (active)

Entry Cc1ccc(C)c(CN2C(=O)c3ccccc3[S+]([O-])c3ccc(C(=O)N4CCN(c5ccccn5)CC4)cc32)c1 (centres undefined) has what IC50?
2.51 µM (active)

GET /values?readout=IC50&item= c1nnc(NCNc2nncs2)s1
> 25 µM (active)

Reported IC50 for Fc1ccc(C2c3[nH]c4ccccc4c3CCN2Cc2cccn2-c2ncccn2)cc1 (centres undefined) : what is it?
> 25 µM (active)

###

# assayTarget: Estrogen receptor beta (Homo sapiens)
# Sequence (Q92731 whole entry): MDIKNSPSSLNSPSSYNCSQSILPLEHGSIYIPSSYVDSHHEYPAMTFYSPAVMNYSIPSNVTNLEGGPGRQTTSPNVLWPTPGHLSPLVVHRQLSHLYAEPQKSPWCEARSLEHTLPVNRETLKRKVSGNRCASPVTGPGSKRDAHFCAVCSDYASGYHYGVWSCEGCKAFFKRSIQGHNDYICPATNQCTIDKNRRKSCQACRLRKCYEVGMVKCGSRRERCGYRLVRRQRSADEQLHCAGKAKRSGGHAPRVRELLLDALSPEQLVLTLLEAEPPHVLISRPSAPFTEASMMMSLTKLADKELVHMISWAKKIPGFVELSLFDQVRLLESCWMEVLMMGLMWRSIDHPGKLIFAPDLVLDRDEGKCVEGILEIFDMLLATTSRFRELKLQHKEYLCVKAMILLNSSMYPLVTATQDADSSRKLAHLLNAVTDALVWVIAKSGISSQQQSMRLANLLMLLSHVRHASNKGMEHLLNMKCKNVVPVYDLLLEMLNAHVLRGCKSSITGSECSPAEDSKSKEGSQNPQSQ
# protocolText: blockers of SRC-3 recruitment to ERβ – biochemical, ELISA, streptavidin-HRP readout, orthogonal assay, confirmation (AID 1060)
measuredEndpoint: IC50

Consider the compound shown here: O=C(c1cc2c(s1)CCC2)N1CCN(c2ccccc2)CC1 What is its recorded IC50?
> 50 µM (not active)

# lookup: IC50 of Cc1ccc(-n2c(SCc3cc(=O)n4ccsc4n3)nnc2-c2cccnc2)c(C)c1
0.721 µM (not active)

Which IC50 reading was recorded for the compound O=C(Cc1cccs1)Nc1ccc(S(=O)(=O)Nc2ncccn2)cc1 ?
0.0699 µM (not active)

Given the entry O=C(NCc1ccc2c(c1)OCO2)c1cc2ncc(Br)cn2n1 , report its measured IC50.
0.363 µM (not active)

Report IC50 for Cc1noc(C)c1S(=O)(=O)N(CC(=O)O)c1ccc2c(c1)OCO2 please.
0.084 µM (not active)

###

# assayTarget: UniProtKB P41145
# Sequence (P41145 whole entry): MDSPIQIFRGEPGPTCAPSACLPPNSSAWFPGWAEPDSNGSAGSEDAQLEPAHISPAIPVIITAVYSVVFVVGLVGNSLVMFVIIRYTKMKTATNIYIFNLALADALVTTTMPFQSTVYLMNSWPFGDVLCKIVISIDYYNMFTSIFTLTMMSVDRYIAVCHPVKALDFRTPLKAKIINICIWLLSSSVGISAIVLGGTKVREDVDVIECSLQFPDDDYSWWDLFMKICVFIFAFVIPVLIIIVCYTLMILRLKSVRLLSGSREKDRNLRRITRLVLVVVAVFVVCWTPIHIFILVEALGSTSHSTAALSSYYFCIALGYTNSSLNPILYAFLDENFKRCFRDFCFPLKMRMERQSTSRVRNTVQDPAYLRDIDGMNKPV
# Assay type: functional
measuredEndpoint: pEC50
Note on pEC50: it is the negative log10 of concentration, concentration in mol/L.

# input compound: CCCCN(Cc1cc2ccccc2nc1O)C(=O)c1ccccn1 ; wanted: its pEC50
5.50

###

# Tested on: HEK293
# protocolText: inhibition of NOD1-driven NF-kB reporter – cell-based, luminescence, uHTS, primary screen (AID 1578)
# Type: functional
# protocolConditions: Homo sapiens
The source made the active and inactive calls.
measuredEndpoint: EC50

Please look up its EC50: O=C(CCl)Nc1cc(-c2ccccc2)nn1-c1ccccc1
4.71 µM (active)

Given the molecule Cc1ccccc1CS(=O)(=O)c1ncc(Cl)c(C(=O)Nc2ccc(F)cc2)n1 , what is its reported EC50?
8.92 µM (active)

Return reported EC50; argument: COc1cc(C(=O)Nc2sc3c(c2C(=O)O)CCC(C)C3)cc(OC)c1OC (centres undefined)
4.16 µM (active)

Find the recorded EC50 belonging to CCOC(=O)c1sc2ccccc2c1OC(=O)c1ccc(C)cc1 and report it.
10.7 µM (active)

###

# assayTarget: Galanin receptor type 3 (Homo sapiens, UniProt O60755)
# Sequence (O60755 whole entry): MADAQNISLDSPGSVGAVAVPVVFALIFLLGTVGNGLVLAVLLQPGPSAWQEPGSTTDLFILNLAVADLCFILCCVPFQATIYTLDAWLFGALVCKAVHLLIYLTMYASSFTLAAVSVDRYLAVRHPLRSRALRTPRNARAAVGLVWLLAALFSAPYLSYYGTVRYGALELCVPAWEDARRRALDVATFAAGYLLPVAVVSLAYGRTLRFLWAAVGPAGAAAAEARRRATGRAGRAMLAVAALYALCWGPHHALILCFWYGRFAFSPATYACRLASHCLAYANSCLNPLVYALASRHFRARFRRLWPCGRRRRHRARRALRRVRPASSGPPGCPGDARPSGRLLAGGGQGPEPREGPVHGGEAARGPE
# protocolText: Fluorescence-based cell-based primary high throughput dose response assay to identify antagonists of the Galanin Receptor 3 (GalR3).
# Type: functional
Activity calls are given as the source filed them.
Answer with one of the outcomes true (active), false (inactive)

Which outcome was assigned to CCCOc1ccc(CSc2nc3ccccc3[nH]2)cc1 in this test?
true

Returns: the outcome recorded for FC(F)(F)c1ccccc1Cc1c(-c2ccco2)nc2c3ccccc3ccn12 in this assay.
false

How was CC(=O)c1cn(Cc2ccccc2C#N)c2ccccc12 classified in this test?
true

Hi, do you know how C=CCC1(CC=C)CCCN1C(=O)c1cc(COc2cncc(Cl)c2)on1 came out in this test?
true

Please indicate how the test categorized CC1(C)CC2CC(C)(CN2S(=O)(=O)c2ccc(C(=O)Nc3ccc(S(=O)(=O)N4CCOCC4)cc3)cc2)C1 (configuration not stated) .
true

What did the test return for COCC1CCCN(C(=O)c2cc(COc3ccc4ncccc4c3)on2)C1 (configuration not stated) ?
true

State the result this test recorded for CSc1ccc(C(=O)C2CCCN(C(=O)CCc3c(C)nn(C)c3C)C2)cc1 (configuration not stated) .
true

###

Record form. Attribute: AC50. Fill in for each entry.
# protocolText: toxicity to human hepatoma HepG2 cells – cell-based, cherry-picked samples, cytotoxicity control, dose response (AID 1159577)
# Type: functional
Activity calls are given as the source filed them.

Which AC50 is listed for N#Cc1cccc(-c2ccc([C@@H]3[C@@H]4CN(Cc5ccccc5)C[C@H]3N4)cc2)c1 ?
15.4 µM (active)

Name the reported AC50 value associated with the compound Cc1nc(N2[C@H](CO)[C@H](c3ccccc3)[C@H]2CNCC2CCCC2)sc1C
> 39 µM (inactive)

Requested read-out: AC50. Entry: COc1ccc(-c2ccc([C@H]3[C@@H](C#N)N(C(=O)NC(C)C)[C@H]3CO)cc2)cc1
3.33 µM (active)

Fill in: AC50 of CC(C)N(C[C@H]1N[C@H](CO)[C@@H]1c1ccc(C2=CCCCC2)cc1)C(=O)CN(C)C is ___
10.8 µM (active)

###

# protocolText: loss of viability in HepG2 cells – cell-based, CellTiter-Glo, cherry-picked, cytotoxicity control for Shn3 inhibitor project, dose response (AID 624134)
# Assay type: functional
Active and inactive are the calls of the source.
measuredEndpoint: AC50

Returns the measured AC50 for the input molecule. Input: Cc1ccccc1CS(=O)(=O)c1ncc(Cl)c(C(=O)Nc2ccc(F)cc2)n1
40.4 µM (active)

Fill in the blank: the reported AC50 of COc1ccc(CN2CCC(C(=O)Nc3ccc(Oc4cccnc4)cc3)CC2)c(C)c1C is ____.
12.9 µM (active)

Item under review: O=[N+]([O-])c1ccc(O)c(-c2cc(C(F)(F)F)nc(-c3ccccc3)n2)c1 . Reported AC50?
1.61 µM (active)

For the molecule shown here, Cc1ccc(C(=O)Nc2nc(-c3ccccn3)cs2)cc1S(=O)(=O)N1CCOCC1 , give the reported AC50.
> 70 µM (inactive)

Returns the measured AC50 for the input molecule. Input: CS(=O)(=O)c1ccc(C(=O)OCC(=O)N2CCN(CCC3CCCCC3)CC2)cc1[N+](=O)[O-]
8.73 µM (active)

Recorded AC50 for CCCCC(=O)NC(c1ccc(C(C)C)cc1)c1ccc2cccnc2c1O (stereo not drawn) , please?
> 70 µM (inactive)

Given the molecule Oc1c(CN2CCN(c3ccc(F)cc3)CC2)cc(Cl)c2cccnc12 , what is its reported AC50?
> 70 µM (inactive)

Any idea what its AC50 is? The molecule is Cc1cc(C2=NN=C(NC3CC3)SC2)c(C)n1-c1ccccc1F
28 µM (active)

###

# protocolText: viability of PTEN-deleted HCT116 cells – cell-based, HCT116 PTEN knockout, dose response (AID 1047);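 note: HCT116 colon tumor cells with PTEN knocked out; cells exposed to compound for 60 hours before readout; potency for loss of cell viability measured by luminescence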
# Type: functional
Active and inactive are the calls of the source.
measuredEndpoint: EC50

State the recorded EC50 for this entry: CC1=C(C(=O)Nc2ccccc2C)C(c2ccc(C)o2)n2c(s/c(=C/c3ccccc3)c2=O)=N1 (stereo not given)
347 µM (active)

What value of measured EC50 is listed for CN(C)c1ccc(/C=N/c2ccc(N(C)C)cc2)cc1 ?
28.5 µM (active)

Item COc1ccc(C(CCNCc2ccc(F)cc2)c2ccc(F)cc2)cc1 (stereo not given) has what recorded EC50?
9.32 µM (active)

Fill in the blank: the reported EC50 of O=C(CNCCC1=CCCCC1)Nc1ccc(N2CCCCCC2)cc1 is ____.
15.3 µM (active)

Look up EC50 for this compound: O=c1cc(-c2c(F)c(F)c(F)c(F)c2F)oc2c(F)c(F)c(F)c(F)c12
5.95 µM (active)

Entry Cc1cc2nc(-c3ccc(SCC(=O)N4CCc5ccccc54)nc3)[nH]c2cc1C has what EC50?
6.92 µM (active)

Returns the measured EC50 for the input compound. Input: O=C(N/N=C\c1ccc([N+](=O)[O-])s1)c1cncc(Br)c1
1.09 µM (active)

Name the recorded EC50 for CCCCn1c(=N)n(CC(O)COc2cccc(C)c2)c2ccccc21 (stereo not given) .
5.56 µM (active)

What does the data say about its EC50? Entry: CCc1ccc2c(c1)C1(C(=O)N2)N2CCCC2C(C(=O)c2ccc3ccccc3c2)C12C(=O)Nc1ccccc12 (stereo not given)
10.2 µM (active)

Record request: EC50 value, item CN(C)CCCNC(=O)c1ccc(-c2nc(-c3ccc(Cl)cc3)cs2)cc1
2.41 µM (active)
